Recorded measurements of B cells EC50, CD86 surface expression, with cross-linker, one per entry
# tested_on: Full length human CD40 (huCD40) on cells (human, UniProt P25942 21-277)
# Sequence (P25942 21-277): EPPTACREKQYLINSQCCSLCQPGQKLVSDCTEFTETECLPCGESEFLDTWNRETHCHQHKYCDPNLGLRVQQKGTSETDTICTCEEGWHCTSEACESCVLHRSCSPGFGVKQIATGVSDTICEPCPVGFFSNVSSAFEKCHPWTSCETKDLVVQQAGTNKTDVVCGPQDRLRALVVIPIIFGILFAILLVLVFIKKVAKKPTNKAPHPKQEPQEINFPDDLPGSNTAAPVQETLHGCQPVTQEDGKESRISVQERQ
# procedure_summary: cell-based or functional assay
assay_endpoint: B cells EC50, CD86 surface expression, with cross-linker (ng/mL)

{"columns": ["binder", "observed_value"],
 "data": [
  ["C40M67 (antibody, human IgG1, kappa, V domains shown, Full-length IgG1/kappa; from phage display) VH: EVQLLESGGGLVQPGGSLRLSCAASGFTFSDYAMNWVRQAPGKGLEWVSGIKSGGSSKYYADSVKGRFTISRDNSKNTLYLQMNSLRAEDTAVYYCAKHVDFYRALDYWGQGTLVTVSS VL: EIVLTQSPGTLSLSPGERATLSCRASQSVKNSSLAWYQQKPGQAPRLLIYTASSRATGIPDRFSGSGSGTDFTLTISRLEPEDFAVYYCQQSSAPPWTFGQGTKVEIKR", 2.26],
  ["C40M12 (antibody, human IgG1, lambda, V domains shown, Full-length IgG1/lambda; from OmniRat (OMT)) VH: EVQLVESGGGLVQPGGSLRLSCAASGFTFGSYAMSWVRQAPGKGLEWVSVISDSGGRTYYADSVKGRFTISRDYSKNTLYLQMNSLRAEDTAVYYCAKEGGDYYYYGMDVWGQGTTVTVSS VL: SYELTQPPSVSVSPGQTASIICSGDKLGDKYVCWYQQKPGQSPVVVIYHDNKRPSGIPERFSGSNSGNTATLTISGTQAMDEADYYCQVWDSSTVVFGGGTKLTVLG", 2.28],
  ["C40M18 (antibody, human IgG1, lambda, V domains shown, Full-length IgG1/lambda; from OmniRat (OMT); VH C40H48, VL C40L64) VH: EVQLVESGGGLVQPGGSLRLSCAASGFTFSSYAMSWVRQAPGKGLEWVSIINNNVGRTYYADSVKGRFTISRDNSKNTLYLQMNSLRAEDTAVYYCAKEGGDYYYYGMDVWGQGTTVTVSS VL: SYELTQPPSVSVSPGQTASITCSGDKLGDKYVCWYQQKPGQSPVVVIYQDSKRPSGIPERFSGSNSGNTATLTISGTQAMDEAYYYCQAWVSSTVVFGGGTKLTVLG", 8.72]
]}
